- experiment description: Therapeutic index (NOAEL/NOEL): paleness, lethargy, ataxia observation in Sprague-Dawley rats (Example 7)
- Type: in vivo
- condition notes: rat, in vivo, sc
measurement kind: Mild adverse effect (Lowest dose first showed Lethargy) (mg/kg)

INSERT INTO measurements (compound, measured_value) VALUES
  ('NCC(=O)NCC(=O)NCC(=O)NCC(=O)NCC(=O)NCC(=O)NCC(=O)NCC(=O)NCCCC[C@H](NC(=O)[C@@H]1CCCN1C(=O)[C@@H]1CSSCCC(=O)N[C@@H](Cc2ccc(O)cc2)C(=O)N[C@@H](Cc2ccccc2)C(=O)N[C@@H](CCCC(N)=O)C(=O)N[C@@H](CC(N)=O)C(=O)N1)C(=O)NCC(N)=O [SEQ ID NO. 15]', 0.5),
  ('NCC(=O)NCCCC[C@H](NC(=O)[C@@H]1CCCN1C(=O)[C@@H]1CSSCCC(=O)N[C@@H](Cc2ccc(O)cc2)C(=O)N[C@@H](Cc2ccccc2)C(=O)N[C@@H](CCCC(N)=O)C(=O)N[C@@H](CC(N)=O)C(=O)N1)C(=O)NCC(N)=O [SEQ ID NO. 8]', 0.5),
  ('NCC(=O)NCC(=O)NCC(=O)NCC(=O)NCC(=O)NCC(=O)NCC(=O)NCCCC[C@H](NC(=O)[C@@H]1CCCN1C(=O)[C@@H]1CSSCCC(=O)N[C@@H](Cc2ccc(O)cc2)C(=O)N[C@@H](Cc2ccccc2)C(=O)N[C@@H](CCCC(N)=O)C(=O)N[C@@H](CC(N)=O)C(=O)N1)C(=O)NCC(N)=O [SEQ ID NO. 14]', 0.5);

###

- experiment description: Therapeutic index (NOAEL/NOEL): paleness, lethargy, ataxia observation in Sprague-Dawley rats (Example 7)
- Assay type: in vivo
- condition notes: male, Sprague-Dawley, in vivo, sc; S.C.; rat; read-out: Highest dose with no-observed adverse effect level without lethargy (NOAEL)
Reported NOAEL at 24 h is given for each of the following compounds.
measurement kind: NOAEL at 24 h (mg/kg)

INSERT INTO assay_data (smiles_text, measurement_kind, measured_value) VALUES
  ('NCCCC[C@H](NC(=O)[C@@H]1CCCN1C(=O)[C@@H]1CSSCCC(=O)N[C@@H](Cc2ccc(O)cc2)C(=O)N[C@@H](Cc2ccccc2)C(=O)N[C@@H](CCCC(N)=O)C(=O)N[C@@H](CC(N)=O)C(=O)N1)C(=O)NCC(N)=O', 'NOAEL at 24 h', 0.015),
  ('NCC(=O)NCCCC[C@H](NC(=O)[C@@H]1CCCN1C(=O)[C@@H]1CSSCCC(=O)N[C@@H](Cc2ccc(O)cc2)C(=O)N[C@@H](Cc2ccccc2)C(=O)N[C@@H](CCCC(N)=O)C(=O)N[C@@H](CC(N)=O)C(=O)N1)C(=O)NCC(N)=O', 'NOAEL at 24 h', 0.15),
  ('NCC(=O)NCC(=O)NCC(=O)NCC(=O)NCC(=O)NCC(=O)NCC(=O)NCC(=O)NCC(=O)NCCCC[C@H](NC(=O)[C@@H]1CCCN1C(=O)[C@@H]1CSSCCC(=O)N[C@@H](Cc2ccc(O)cc2)C(=O)N[C@@H](Cc2ccccc2)C(=O)N[C@@H](CCC(N)=O)C(=O)N[C@@H](CC(N)=O)C(=O)N1)C(=O)NCC(N)=O', 'NOAEL at 24 h', 0.5);

###

Listed here: items and their measured NOAEL/NOEL (therapeutic index).
- experiment description: Therapeutic index (NOAEL/NOEL): paleness, lethargy, ataxia observation in Sprague-Dawley rats (Example 7)
- Format: in vivo
- condition notes: S.C.; rat
measurement kind: NOAEL/NOEL (therapeutic index)

INSERT INTO results (smiles_text, measured_value) VALUES
  ('NCCCC[C@H](NC(=O)[C@@H]1CCCN1C(=O)[C@@H]1CSSCCC(=O)N[C@@H](Cc2ccc(O)cc2)C(=O)N[C@@H](Cc2ccccc2)C(=O)N[C@@H](CCCC(N)=O)C(=O)N[C@@H](CC(N)=O)C(=O)N1)C(=O)NCC(N)=O', 10),
  ('NCC(=O)NCC(=O)NCC(=O)NCC(=O)NCC(=O)NCC(=O)NCC(=O)NCC(=O)NCC(=O)NCCCC[C@H](NC(=O)[C@@H]1CCCN1C(=O)[C@@H]1CSSCCC(=O)N[C@@H](Cc2ccc(O)cc2)C(=O)N[C@@H](Cc2ccccc2)C(=O)N[C@@H](CCC(N)=O)C(=O)N[C@@H](CC(N)=O)C(=O)N1)C(=O)NCC(N)=O', 333),
  ('NCC(=O)NCCCC[C@H](NC(=O)[C@@H]1CCCN1C(=O)[C@@H]1CSSCCC(=O)N[C@@H](Cc2ccc(O)cc2)C(=O)N[C@@H](Cc2ccccc2)C(=O)N[C@@H](CCCC(N)=O)C(=O)N[C@@H](CC(N)=O)C(=O)N1)C(=O)NCC(N)=O', 10),
  ('NCC(=O)NCC(=O)NCC(=O)NCC(=O)NCC(=O)NCC(=O)NCC(=O)NCCCC[C@H](NC(=O)[C@@H]1CCCN1C(=O)[C@@H]1CSSCCC(=O)N[C@@H](Cc2ccc(O)cc2)C(=O)N[C@@H](Cc2ccccc2)C(=O)N[C@@H](CCCC(N)=O)C(=O)N[C@@H](CC(N)=O)C(=O)N1)C(=O)NCC(N)=O', 100);

###

- experiment description: Therapeutic index (NOAEL/NOEL): paleness, lethargy, ataxia observation in Sprague-Dawley rats (Example 7)
- Type: in vivo
- condition notes: male, Sprague-Dawley, in vivo, sc; S.C.; rat; read-out: Highest dose with no-observed adverse effect level without lethargy (NOAEL)
measurement kind: NOAEL at 24 h (mg/kg)

INSERT INTO measurements (smiles_text, measurement_kind, unit_abbreviation, measured_value) VALUES
  ('NCC(=O)NCC(=O)NCC(=O)NCC(=O)NCC(=O)NCC(=O)NCCCC[C@H](NC(=O)[C@@H]1CCCN1C(=O)[C@@H]1CSSCCC(=O)N[C@@H](Cc2ccc(O)cc2)C(=O)N[C@@H](Cc2ccccc2)C(=O)N[C@@H](CCCC(N)=O)C(=O)N[C@@H](CC(N)=O)C(=O)N1)C(=O)NCC(N)=O', 'NOAEL at 24 h', 'mg/kg', 0.3);

###

Listed here: items and their measured Marked adverse effect (Lowest dose first showed Ataxia).
- experiment description: Therapeutic index (NOAEL/NOEL): paleness, lethargy, ataxia observation in Sprague-Dawley rats (Example 7)
- Format: in vivo
- condition notes: rat, in vivo, sc
- Description: As used herein, the term “therapeutic index” (TI; also referred to as therapeutic ratio) is a quantitative measure of the relative safety of a drug. […] In rats, peripheral vasoconstriction is determined by a side-by-side comparison of ear paleness in treated subjects (e.g., Sprague Dawley rats, a white rat with easily visualizable changes in redness/paleness) vs. untreated control subjects. […]
Where a SMILES comes first, the peptide text is derived from it. Bridges are numbered along the chain shown (N, C = ends). [ ]: non-standard residue; d: D form. Aad = N[C@@H](CCCC(=O)O)C(=O)O; Dab = NCC[C@H](N)C(=O)O; Dap = NC[C@H](N)C(=O)O; Mpa = O=C(O)CCS
measurement kind: Marked adverse effect (Lowest dose first showed Ataxia) (mg/kg)

INSERT INTO measurements (molecule, value_comparator, measured_value) VALUES
  ('CC(=O)NCCCC[C@H](NC(=O)[C@@H]1CCCN1C(=O)[C@@H]1CSSCCC(=O)N[C@@H](Cc2ccc(O)cc2)C(=O)N[C@@H](Cc2ccccc2)C(=O)N[C@@H](CCCC(N)=O)C(=O)N[C@@H](CC(N)=O)C(=O)N1)C(=O)NCC(N)=O [SEQ ID NO. 28]', '=', 3),
  ('NCC(=O)NCC(=O)NCC(=O)NCCCC[C@H](NC(=O)[C@@H]1CCCN1C(=O)[C@@H]1CSSCCC(=O)N[C@@H](Cc2ccc(O)cc2)C(=O)N[C@@H](Cc2ccccc2)C(=O)N[C@@H](CCCC(N)=O)C(=O)N[C@@H](CC(N)=O)C(=O)N1)C(=O)NCC(N)=O [SEQ ID NO. 10]', '=', 1.5),
  ('NCC(=O)NCC(=O)NCC(=O)NCC(=O)NCCCC[C@H](NC(=O)[C@@H]1CCCN1C(=O)[C@@H]1CSSCCC(=O)N[C@@H](Cc2ccc(O)cc2)C(=O)N[C@@H](Cc2ccccc2)C(=O)N[C@@H](CCCC(N)=O)C(=O)N[C@@H](CC(N)=O)C(=O)N1)C(=O)NCC(N)=O [SEQ ID NO. 11]', '=', 1.5),
  ('NCC[C@H](NC(=O)[C@@H]1CCCN1C(=O)[C@@H]1CSSCCC(=O)N[C@@H](Cc2ccc(O)cc2)C(=O)N[C@@H](Cc2ccccc2)C(=O)N[C@@H](CCCC(N)=O)C(=O)N[C@@H](CC(N)=O)C(=O)N1)C(=O)NCC(N)=O [SEQ ID NO. 31, Mpa-Tyr-Phe-Hgn-Asn-Cys-Pro-Dab-Gly-NH2] ([Mpa]YF[Aad](NH2)NCP[Dab]G-NH2; disulfide 1-6)', '=', 0.045),
  ('NCCCC[C@H](NC(=O)[C@@H]1CCCN1C(=O)[C@@H]1CSSCCC(=O)N[C@@H](Cc2ccc(O)cc2)C(=O)N[C@@H](Cc2ccccc2)C(=O)N[C@@H](CCC(N)=O)C(=O)N[C@@H](CC(N)=O)C(=O)N1)C(=O)NCC(N)=O [SEQ ID NO. 32]', '=', 0.1),
  ('NCC(=O)NCC(=O)NCC(=O)NCC(=O)NCC(=O)NCC(=O)NCC(=O)NCC(=O)NCC(=O)NCCCC[C@H](NC(=O)[C@@H]1CCCN1C(=O)[C@@H]1CSSCCC(=O)N[C@@H](Cc2ccc(O)cc2)C(=O)N[C@@H](Cc2ccccc2)C(=O)N[C@@H](CCCC(N)=O)C(=O)N[C@@H](CC(N)=O)C(=O)N1)C(=O)NCC(N)=O [SEQ ID NO. 16]', '=', 5.0),
  ('NCC(=O)NCCCC[C@H](NC(=O)[C@@H]1CCCN1C(=O)[C@@H]1CSSCCC(=O)N[C@@H](Cc2ccc(O)cc2)C(=O)N[C@@H](Cc2ccccc2)C(=O)N[C@@H](CCCC(N)=O)C(=O)N[C@@H](CC(N)=O)C(=O)N1)C(=O)NCC(N)=O [SEQ ID NO. 8]', '=', 1.5),
  ('NCCC[C@H](NC(=O)[C@@H]1CCCN1C(=O)[C@@H]1CSSCCC(=O)N[C@@H](Cc2ccc(O)cc2)C(=O)N[C@@H](Cc2ccccc2)C(=O)N[C@@H](CCCC(N)=O)C(=O)N[C@@H](CC(N)=O)C(=O)N1)C(=O)NCC(N)=O [SEQ ID NO. 30, Mpa-Tyr-Phe-Hgn-Asn-Cys-Pro-Orn-Gly-NH2]', '=', 0.044),
  ('NCCCC[C@@H](NC(=O)[C@@H]1CCCN1C(=O)[C@@H]1CSSCCC(=O)N[C@@H](Cc2ccc(O)cc2)C(=O)N[C@@H](Cc2ccccc2)C(=O)N[C@@H](CCCC(N)=O)C(=O)N[C@@H](CC(N)=O)C(=O)N1)C(=O)NCC(N)=O [SEQ ID NO. 18, Mpa-Tyr-Phe-Hgn-Asn-Cys-Pro-dLys-Gly-NH2]', '=', 1.5),
  ('NCC(=O)NCC(=O)NCCCC[C@H](NC(=O)[C@@H]1CCCN1C(=O)[C@@H]1CSSCCC(=O)N[C@@H](Cc2ccc(O)cc2)C(=O)N[C@@H](Cc2ccccc2)C(=O)N[C@@H](CCCC(N)=O)C(=O)N[C@@H](CC(N)=O)C(=O)N1)C(=O)NCC(N)=O [SEQ ID NO. 9]', '=', 1.5),
  ('NCC(=O)NCC(=O)NCC(=O)NCC(=O)NCC(=O)NCC(=O)NCC(=O)NCC(=O)NCCCC[C@H](NC(=O)[C@@H]1CCCN1C(=O)[C@@H]1CSSCCC(=O)N[C@@H](Cc2ccc(O)cc2)C(=O)N[C@@H](Cc2ccccc2)C(=O)N[C@@H](CCCC(N)=O)C(=O)N[C@@H](CC(N)=O)C(=O)N1)C(=O)NCC(N)=O [SEQ ID NO. 15]', '=', 1.5),
  ('NCC(=O)NCC(=O)NCC(=O)NCC(=O)NCC(=O)NCC(=O)NCCCC[C@H](NC(=O)[C@@H]1CCCN1C(=O)[C@@H]1CSSCCC(=O)N[C@@H](Cc2ccc(O)cc2)C(=O)N[C@@H](Cc2ccccc2)C(=O)N[C@@H](CCCC(N)=O)C(=O)N[C@@H](CC(N)=O)C(=O)N1)C(=O)NCC(N)=O [SEQ ID NO. 13]', '=', 5.0),
  ('NC[C@H](NC(=O)[C@@H]1CCCN1C(=O)[C@@H]1CSSCCC(=O)N[C@@H](Cc2ccc(O)cc2)C(=O)N[C@@H](Cc2ccccc2)C(=O)N[C@@H](CCCC(N)=O)C(=O)N[C@@H](CC(N)=O)C(=O)N1)C(=O)NCC(N)=O [SEQ ID NO. 17, Mpa-Tyr-Phe-Hgn-Asn-Cys-Pro-Dap-Gly-NH2] ([Mpa]YF[Aad](NH2)NCP[Dap]G-NH2; disulfide 1-6)', '>', 9.95);
